# System: Rat Aorta Sample (constriction by KCl)
# assay.explanation: Vasorelaxation activity in rat aorta sample: effect on constriction caused by potassium chloride (KCl)
# Type: cell-based, Male Wister rats
# assay.conditions: 1 μM; KCl (80 mM); rat aorta ring; read-out: constriction inhibitory ratio (%)
observable: inhibition at 1 µM (%)

molecule.smiles | uom | number
Cc1cc2c(cc1[N+](=O)[O-])C(c1cccc[n+]1[O-])=NC(C)(C)O2 | % | -7
CC1(C)N=C(c2cccc[n+]2[O-])c2cc(C(F)(F)F)ccc2O1 | % | -2
CC1(C)N=C(c2cccc[n+]2[O-])c2cc(Br)ccc2O1 | % | -1
